Data provenance: PubChem BioAssay AID651592

procedure.summary: inhibitors of NFkB activation in CF airway cells, SAR follow-up, KKLEB cells, panel, IL8 HTRF, NFkB-GFP (AID 651592);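 also: immortalized cystic fibrosis airway epithelial KKLEB cells with an NF-kB GFP reporter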
condition.context: PAF/TNFa-induced NFkB-GFP / IL8 HTRF, CF-PAF assay, mean of runs
Active and inactive are the calls of the source.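 The calls were made as follows: active = NF-kB reporter IC50 at most 10 µM, IL-8 IC50 within fivefold of it with bacterial filtrate but not with TNF-alpha; inactive = the rest.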
Outcomes: 1 (yes) = active, 0 (no) = inactive

# chem.smiles, group.label
measured = [
    ("O=C(Nc1ccc(N2CCN(C(=O)c3ccc(F)cc3)CC2)cc1)c1cncc(Br)c1", "1 (yes)"),
    ("Cc1ccc(NCc2cc3c(C(C)(C)C)nn(-c4ccccc4)c3[nH]c2=O)cc1", "0 (no)"),
    ("O=C(Nc1ccc(N2CCN(C(=O)c3ccccc3F)CC2)cc1)c1cccnc1", "0 (no)"),
    ("O=C(Nc1ccc(N2CCN(C(=O)c3ccccc3)CC2)cc1)c1ccncc1", "0 (no)"),
]
